experiment: Drug metabolism study in rats, intravenous administration; conditions: rat, in vivo, iv, 1 mg/kg
READOUT_LABEL: clearance (mL/min/kg)
The reply should be a number in mL/min/kg, with the unit left off.

Q: Entry C[C@@H](Nc1ccn2ncc(-c3cnn(CCO)c3)c2n1)c1cc(F)ccc1OCC(F)F has what clearance?
A: 83.3

###

Provide the reported MRT last of each item.
assay: Drug metabolism study in rats, oral administration; conditions: rat, plasma, po, 5 mg/kg
Answers without a unit are incomplete; give the number and then its unit.

Q: Entry C[C@@H](Nc1ccn2ncc(-c3cnn(CCO)c3)c2n1)c1cc(F)ccc1OCC(F)(F)F has what MRT last?
A: 3.8 h

Q: Entry C[C@@H](Nc1ccn2ncc(-c3cnn(C)c3)c2n1)c1cc(F)ccc1OCC(F)F please
A: 2.62 h

Q: Entry C[C@@H](Nc1ccn2ncc(-c3cn[nH]c3)c2n1)c1cc(F)ccc1OCC(F)(F)F please
A: 4.27 h

Q: Entry C[C@@H](Nc1ccn2ncc(-c3cnn(CCO)c3)c2n1)c1cc(F)ccc1OCC(F)F please
A: 3.6 h

Q: Entry C[C@@H](Nc1ccn2ncc(-c3cn[nH]c3)c2n1)c1cc(F)ccc1OCC(F)F please
A: 5.69 h

###

experiment: Drug metabolism study in rats, oral administration; settings: rat, oral 5 mg/kg
Would you please tag the item TRUE when its Vz is 40 L/kg or above, and FALSE when it is below?

Q: Does the reported Vz for C[C@@H](Nc1ccn2ncc(-c3cnn(CCO)c3)c2n1)c1cc(F)ccc1OCC(F)F [Compound 5] fall at or above the 40 L/kg mark?
A: TRUE

Q: Entry C[C@@H](Nc1ccn2ncc(-c3cnn(CCO)c3)c2n1)c1cc(F)ccc1OCC(F)(F)F [Compound a24-32] please
A: FALSE

Q: Entry C[C@@H](Nc1ccn2ncc(-c3cnn(C)c3)c2n1)c1cc(F)ccc1OCC(F)F [Compound 2] please
A: FALSE

Q: Entry C[C@@H](Nc1ccn2ncc(-c3cn[nH]c3)c2n1)c1cc(F)ccc1OCC(F)F [Compound 1] please
A: TRUE

Q: Entry C[C@@H](Nc1ccn2ncc(-c3cn[nH]c3)c2n1)c1cc(F)ccc1OCC(F)(F)F [Compound b8-30] please
A: FALSE

###

test: Drug metabolism study in rats, intravenous administration; settings: rat, plasma, iv, 1 mg/kg
READOUT_LABEL: MRT last (h)
The reply should be a number in h, with the unit left off.

Q: Entry C[C@@H](Nc1ccn2ncc(-c3cn[nH]c3)c2n1)c1cc(F)ccc1OCC(F)F has what MRT last?
A: 3.62

Q: Entry C[C@@H](Nc1ccn2ncc(-c3cnn(CCO)c3)c2n1)c1cc(F)ccc1OCC(F)(F)F please
A: 4.29

Q: Entry C[C@@H](Nc1ccn2ncc(-c3cn[nH]c3)c2n1)c1cc(F)ccc1OCC(F)(F)F please
A: 4.2

Q: Entry C[C@@H](Nc1ccn2ncc(-c3cnn(CCO)c3)c2n1)c1cc(F)ccc1OCC(F)F please
A: 3.89

Q: Entry C[C@@H](Nc1ccn2ncc(-c3cnn(C)c3)c2n1)c1cc(F)ccc1OCC(F)F please
A: 1.49

###

biological target: TRKA (Homo sapiens, UniProt P04629); construct: purchased Carna Biosciences 08-186; assay: In vitro biochemical HTRF KinEASE kinase inhibition, TRKA
Sequence (P04629 33-796): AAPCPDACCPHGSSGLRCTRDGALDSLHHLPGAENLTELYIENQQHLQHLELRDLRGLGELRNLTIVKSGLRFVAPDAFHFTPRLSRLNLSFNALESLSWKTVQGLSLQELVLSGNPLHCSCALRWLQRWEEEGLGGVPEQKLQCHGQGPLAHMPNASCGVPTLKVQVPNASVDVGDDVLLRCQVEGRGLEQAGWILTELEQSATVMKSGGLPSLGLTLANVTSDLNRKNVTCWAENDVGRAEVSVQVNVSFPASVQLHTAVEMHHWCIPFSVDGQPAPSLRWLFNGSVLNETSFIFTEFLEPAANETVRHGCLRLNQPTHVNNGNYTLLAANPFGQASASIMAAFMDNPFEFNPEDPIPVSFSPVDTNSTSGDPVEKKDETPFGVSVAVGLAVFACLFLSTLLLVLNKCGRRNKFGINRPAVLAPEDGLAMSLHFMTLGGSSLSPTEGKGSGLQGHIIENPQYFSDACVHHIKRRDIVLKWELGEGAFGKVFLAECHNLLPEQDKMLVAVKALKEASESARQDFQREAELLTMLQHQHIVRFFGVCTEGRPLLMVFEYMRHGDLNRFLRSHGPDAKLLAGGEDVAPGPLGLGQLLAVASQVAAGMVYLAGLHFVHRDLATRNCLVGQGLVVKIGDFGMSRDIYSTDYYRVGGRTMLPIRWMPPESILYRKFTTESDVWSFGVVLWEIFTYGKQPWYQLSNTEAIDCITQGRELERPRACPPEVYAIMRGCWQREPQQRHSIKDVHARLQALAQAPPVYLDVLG
READOUT_LABEL: IC50 (nM)
The reply should be a number in nM, with the unit left off.

Q: Entry CC(Nc1ccn2ncc(-c3cn[nH]c3)c2n1)c1cc(F)ccc1OCC#N (stereo not shown) has what IC50?
A: 88.6

###

experiment: Drug metabolism study in rats, oral administration; conditions: rat, plasma, po, 5 mg/kg
Provide the reported Cmax of each item.
The reply should be a number in ng/mL, with the unit left off.

Q: Entry C[C@@H](Nc1ccn2ncc(-c3cnn(CCO)c3)c2n1)c1cc(F)ccc1OCC(F)(F)F [Compound a24-32] has what Cmax?
A: 195

Q: Entry C[C@@H](Nc1ccn2ncc(-c3cn[nH]c3)c2n1)c1cc(F)ccc1OCC(F)(F)F [Compound b8-30] please
A: 283

Q: Entry C[C@@H](Nc1ccn2ncc(-c3cn[nH]c3)c2n1)c1cc(F)ccc1OCC(F)F [Compound 1] please
A: 109

Q: Entry C[C@@H](Nc1ccn2ncc(-c3cnn(C)c3)c2n1)c1cc(F)ccc1OCC(F)F [Compound 2] please
A: 150

###

molecular target: TRKA-F589L (Homo sapiens, UniProt P04629, F589L); assay: TRK kinase mutant inhibition (HTRF), TRKA-F589L
Sequence (P04629 33-796 F589L): as the sequence (P04629 33-796) above, with F557L counted along it
READOUT_LABEL: IC50 (nM)
The reply should be a number in nM, with the unit left off.

Q: Entry C[C@@H](Nc1ccn2ncc(-c3cn[nH]c3)c2n1)c1cc(F)ccc1OCCF [Compound b7-16] has what IC50?
A: 0.32

Q: Entry C[C@@H](Nc1ccn2ncc(-c3cnn(CCO)c3)c2n1)c1cc(F)ccc1OCC(F)(F)F [Compound a24-32] please
A: 0.44

Q: Entry C[C@@H](Nc1ccn2ncc(-c3cnn(C)c3)c2n1)c1cc(F)ccc1OCC(F)(F)F [Compound a23-31] please
A: 0.38

Q: Entry C[C@@H](Nc1ccn2ncc(-c3cn[nH]c3)c2n1)c1cc(F)ccc1OCC(F)(F)F [Compound b8-30] please
A: 0.44

Q: Entry CC(Nc1ccn2ncc(-c3cnn(C(F)F)c3)c2n1)c1cc(F)ccc1OCCF (stereo not shown) [Compound a11-18] please
A: 0.32

Q: Entry C[C@@H](Nc1ccn2ncc(-c3cn[nH]c3)c2n1)c1cc(F)ccc1OCC(F)F [Compound 1] please
A: 0.22

Q: Entry C[C@@H](Nc1ccn2ncc(-c3cnn(C)c3)c2n1)c1cc(F)ccc1OC(F)F [Compound a4-8] please
A: 0.4

Q: Entry C[C@@H](Nc1ccn2ncc(-c3cnn(CCO)c3)c2n1)c1cc(F)ccc1OCC(F)F [Compound 5] please
A: 0.29

###

target: TRKA (Homo sapiens, UniProt P04629); construct: purchased Carna Biosciences 08-186; experiment: In vitro biochemical HTRF KinEASE kinase inhibition, TRKA; conditions: wild-type kinase, final ATP 3.727 μmol/L; read-out: TRKA IC50
pIC50: −log10 of the molar value.
Would you please tag the item 1.0 when its pIC50 is 8 or above, and 0.0 when it is below?

Q: Does the reported pIC50 for CC(Nc1ccn2ncc(-c3cnn(C4CCCCC4O)c3)c2n1)c1cc(F)ccc1O (centres unmarked) [Compound a3-4] fall at or above the 8 mark?
A: 0.0

Q: Entry CC(Nc1ccn2ncc(-c3cnn(C(C)C)c3)c2n1)c1cc(F)ccc1OCCF (centres unmarked) [Compound a13-20] please
A: 0.0

Q: Entry CC(Nc1ccn2ncc(-c3cn[nH]c3)c2n1)c1cc(F)ccc1OCCN1CCOCC1 (centres unmarked) [Compound b16-44] please
A: 0.0

Q: Entry C[C@@H](Nc1ccn2ncc(-c3cn[nH]c3)c2n1)c1cc(F)ccc1OCC(F)F [Compound 1] please
A: 1.0

###

assay: Drug metabolism study in rats, oral administration; details: rat, plasma, po, 5 mg/kg
Provide the reported bioavailability of each item.

Q: Entry C[C@@H](Nc1ccn2ncc(-c3cnn(C)c3)c2n1)c1cc(F)ccc1OCC(F)F has what bioavailability?
A: 30.2%

Q: Entry C[C@@H](Nc1ccn2ncc(-c3cnn(CCO)c3)c2n1)c1cc(F)ccc1OCC(F)(F)F please
A: 47.6%

Q: Entry C[C@@H](Nc1ccn2ncc(-c3cn[nH]c3)c2n1)c1cc(F)ccc1OCC(F)F please
A: 29.9%

Q: Entry C[C@@H](Nc1ccn2ncc(-c3cn[nH]c3)c2n1)c1cc(F)ccc1OCC(F)(F)F please
A: 56.2%

###

biological target: TRKC (Homo sapiens, UniProt Q16288)
Sequence (Q16288 32-825 isoform Q16288-3 limits assumed): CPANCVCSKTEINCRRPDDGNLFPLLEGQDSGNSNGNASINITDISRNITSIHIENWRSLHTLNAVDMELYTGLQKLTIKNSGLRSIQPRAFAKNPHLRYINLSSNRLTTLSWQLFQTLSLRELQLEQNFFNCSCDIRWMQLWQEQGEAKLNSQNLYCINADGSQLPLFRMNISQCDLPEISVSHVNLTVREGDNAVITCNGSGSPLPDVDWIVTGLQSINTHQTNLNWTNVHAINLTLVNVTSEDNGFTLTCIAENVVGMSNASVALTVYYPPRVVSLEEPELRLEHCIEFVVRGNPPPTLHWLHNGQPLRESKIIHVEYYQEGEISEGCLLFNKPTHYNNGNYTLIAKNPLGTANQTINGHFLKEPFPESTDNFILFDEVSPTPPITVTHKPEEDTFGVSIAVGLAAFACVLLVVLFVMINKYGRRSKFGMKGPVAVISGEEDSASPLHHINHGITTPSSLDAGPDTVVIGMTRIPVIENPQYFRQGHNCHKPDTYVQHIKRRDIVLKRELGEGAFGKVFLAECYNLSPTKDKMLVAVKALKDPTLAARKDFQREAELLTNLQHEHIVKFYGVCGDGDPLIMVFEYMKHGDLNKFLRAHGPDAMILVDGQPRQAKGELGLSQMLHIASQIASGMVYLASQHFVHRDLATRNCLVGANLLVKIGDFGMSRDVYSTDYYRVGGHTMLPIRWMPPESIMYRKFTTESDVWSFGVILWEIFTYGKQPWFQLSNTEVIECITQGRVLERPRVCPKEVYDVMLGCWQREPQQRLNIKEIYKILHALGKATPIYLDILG
Provide the reported IC50 of each item.
The reply should be a number in nM, with the unit left off.

Q: Entry C[C@@H](Nc1ccn2ncc(-c3cnn(CCO)c3)c2n1)c1cc(F)ccc1OCC(F)F [Compound 5] has what IC50?
A: 11.1

Q: Entry C[C@@H](Nc1ccn2ncc(-c3cnn(CCO)c3)c2n1)c1cc(F)ccc1OCC(F)(F)F [Compound a24-32] please
A: 2.9

Q: Entry CC(Nc1ccn2ncc(-c3cnn(C)c3)c2n1)c1cc(F)ccc1OCC1CC1 (centres unmarked) [Compound a26-38] please
A: 9.9

Q: Entry CC(Nc1ccn2ncc(-c3cnn(C4CC4)c3)c2n1)c1cc(F)ccc1OCC(F)F (centres unmarked) [Compound 4] please
A: 24.9

Q: Entry C[C@@H](Nc1ccn2ncc(-c3cn[nH]c3)c2n1)c1cc(F)ccc1OCC(F)(F)F [Compound b8-30] please
A: 3.9

Q: Entry CC(Nc1ccn2ncc(-c3cnn(C4CCCC4O)c3)c2n1)c1cc(F)ccc1O (centres unmarked) [Compound a2-3] please
A: 8.5

###

Provide the reported pIC50 of each item.
target: TRKB (Homo sapiens)
Sequence (Q16620 32-822): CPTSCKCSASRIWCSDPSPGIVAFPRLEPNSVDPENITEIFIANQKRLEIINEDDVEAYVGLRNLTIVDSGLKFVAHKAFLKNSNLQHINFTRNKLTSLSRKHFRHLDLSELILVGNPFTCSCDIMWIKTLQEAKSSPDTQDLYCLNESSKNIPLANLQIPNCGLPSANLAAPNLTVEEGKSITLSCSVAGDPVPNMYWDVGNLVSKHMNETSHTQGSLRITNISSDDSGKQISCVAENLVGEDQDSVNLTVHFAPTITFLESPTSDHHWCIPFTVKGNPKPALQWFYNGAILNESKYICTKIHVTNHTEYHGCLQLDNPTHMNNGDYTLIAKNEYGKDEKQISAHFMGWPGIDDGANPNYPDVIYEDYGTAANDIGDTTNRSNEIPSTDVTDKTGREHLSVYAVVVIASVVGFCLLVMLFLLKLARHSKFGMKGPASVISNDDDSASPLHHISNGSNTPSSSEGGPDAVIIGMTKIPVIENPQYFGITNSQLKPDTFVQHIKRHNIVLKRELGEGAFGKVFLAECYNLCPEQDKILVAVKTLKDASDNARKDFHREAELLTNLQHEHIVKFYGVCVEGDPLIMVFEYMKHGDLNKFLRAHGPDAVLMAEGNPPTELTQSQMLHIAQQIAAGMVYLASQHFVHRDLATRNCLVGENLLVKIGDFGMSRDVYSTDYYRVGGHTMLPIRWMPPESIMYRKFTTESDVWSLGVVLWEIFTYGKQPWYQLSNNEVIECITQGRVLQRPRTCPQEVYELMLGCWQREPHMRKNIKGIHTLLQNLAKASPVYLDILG
Keep it numeric: pIC50 is minus log10 of the concentration in mol/L.

Q: Entry CC(Nc1ccn2ncc(-c3cn[nH]c3)c2n1)c1cc(F)cc(F)c1OCC(F)F (stereo not drawn) has what pIC50?
A: 8.38

Q: Entry C[C@@H](Nc1ccn2ncc(-c3cn[nH]c3)c2n1)c1cc(F)ccc1OCCF please
A: 8.60

Q: Entry C[C@@H](Nc1ccn2ncc(-c3cnn(C)c3)c2n1)c1cc(F)ccc1OC(F)F please
A: 8.82

Q: Entry CC(=O)n1cc(-c2cnn3ccc(N[C@H](C)c4cc(F)ccc4OCC(F)F)nc23)cn1 please
A: 8.46

Q: Entry CC(Nc1ccn2ncc(-c3cnn(C4CC4)c3)c2n1)c1cc(F)ccc1OCC(F)F (stereo not drawn) please
A: 7.80

Q: Entry C[C@@H](Nc1ccn2ncc(-c3cn[nH]c3)c2n1)c1cc(F)ccc1OCC(F)F please
A: 8.72

Q: Entry C[C@@H](Nc1ccn2ncc(-c3cnn(CCO)c3)c2n1)c1cc(F)ccc1OCC(F)(F)F please
A: 8.85

Q: Entry C[C@@H](Nc1ccn2ncc(-c3cnn(CCO)c3)c2n1)c1cc(F)ccc1OCC(F)F please
A: 8.41

Q: Entry CC(Nc1ccn2ncc(-c3cn[nH]c3)c2n1)c1ccccc1OCC(F)F (stereo not drawn) please
A: 8.07

Q: Entry C[C@@H](Nc1ccn2ncc(-c3cn[nH]c3)c2n1)c1cc(F)ccc1OCC(F)(F)F please
A: 8.49
